Data origin: ChEMBL document CHEMBL1126874

- Protocol Text: Agonist-induced calcium mobilization using human polymorphonuclear leukocytes
- Parameters: concentration or dose not given beside the values
Entries and their measured Agonist activity % follow.
Please give a number only; it is taken to be in %.

In the examples that follow, each entry is paired with its recorded Agonist activity %.
Molecule: CCCCCCCCC(O)c1ccc2ccc(/C=C/CCCC(=O)O)nc2c1 (stereo not given)
Agonist activity % [%]: 45
--
Molecule: CCCCCCCCC(O)CCc1cccc(CC(O)c2cccc(C(=O)[O-])c2)n1.[Li+] (stereo not given)
Agonist activity % [%]: 84
--
Molecule: CCCCCCCCC(O)c1ccc2ccc(C[S+]([O-])c3cccc(C(=O)O)c3)nc2c1 (stereo not given)
Agonist activity % [%]: 98
--
Molecule: CCCCOc1cccc(C(O)/C=C/c2cccc(CC(O)c3cccc(C(=O)[O-])c3)n2)c1.[Li+] (stereo not given)
Agonist activity % [%]: 56
--
Molecule: CCCCCCCCC(O)c1ccc2ccc(CC(O)c3cccc(C(=O)[O-])c3)nc2c1.[Li+] (stereo not given)
Agonist activity % [%]: 74
--
Molecule: CCCCCCCCC(O)c1ccc2ccc(CCc3cccc(C(=O)[O-])c3)nc2c1.[Li+] (stereo not given)
Agonist activity % [%]: 66
--
Molecule: CCCCCCCCC(O)c1ccc2ccc(CSc3cccc(C(=O)O)c3)nc2c1 (stereo not given)
Agonist activity % [%]: 85
--
Molecule: CCCCCCCCC(O)/C=C/c1cccc(CC(O)c2cccc(C(=O)[O-])c2)n1.[Li+] (stereo not given)
Agonist activity % [%]: 86

Request: Returns the measured Agonist activity % for the input molecule. Input: CCCCCCCCC(O)c1ccc2ccc(CCCCCC(=O)O)nc2c1 (stereo not given)
Result: 58

Request: Returns the measured Agonist activity % for the input molecule. Input: CCCCC/C=C\C[C@H](O)/C=C/c1cccc(C[C@H](O)CCCCO)n1
Result: 100

###

Entries and their measured Agonist activity % follow.
- Protocol Text: Agonist-induced calcium mobilization using human polymorphonuclear leukocytes
- Parameters: concentration or dose not given beside the values
Please give a number only; it is taken to be in %.

In the examples that follow, each entry is paired with its recorded Agonist activity %.
Compound: CCCCCCCCC(O)c1ccc2ccc(C[S+]([O-])c3cccc(C(=O)[O-])c3)cc2c1.[Li+] (stereo not given)
Unit Abbreviation: %
Reading: 56
--
Compound: CCCCCCCC[C@@H](O)c1ccc2ccc(CCc3cccc(C(=O)[O-])c3)nc2c1.[Li+]
Unit Abbreviation: %
Reading: 56
--
Compound: CCCCOc1cccc(C(O)CCc2cccc(CC(O)c3cccc(C(=O)[O-])c3)n2)c1.[Li+] (stereo not given)
Unit Abbreviation: %
Reading: 4

Request: Returns the measured Agonist activity % for the input compound. Input: CCCCCCCCC(O)c1ccc2ccc(CC(O)CCCC(=O)O)nc2c1 (stereo not given)
Result: 63

Request: Returns the measured Agonist activity % for the input compound. Input: CCCCCCCCC(O)c1ccc2ccc(CSc3cccc(C(=O)[O-])c3)cc2c1.[Li+] (stereo not given)
Result: 23

###

- Subject Of Test: Leukotriene B4 receptor 1 (Homo sapiens, UniProt Q15722)
- Sequence (Q15722 whole entry): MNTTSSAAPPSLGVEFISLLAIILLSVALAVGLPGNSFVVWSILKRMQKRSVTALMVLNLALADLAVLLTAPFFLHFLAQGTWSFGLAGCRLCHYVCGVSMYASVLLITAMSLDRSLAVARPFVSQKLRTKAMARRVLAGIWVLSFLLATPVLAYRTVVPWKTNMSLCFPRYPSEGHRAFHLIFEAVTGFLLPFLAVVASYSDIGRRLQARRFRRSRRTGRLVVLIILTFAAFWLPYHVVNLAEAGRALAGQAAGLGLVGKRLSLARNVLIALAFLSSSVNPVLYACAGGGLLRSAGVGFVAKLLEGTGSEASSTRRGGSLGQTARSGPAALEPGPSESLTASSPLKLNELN
- Protocol Text: Inhibition of [3H]- LTB4 binding on human whole cells
Observed Property: pKi
Scale for pKi: -log10 of concentration given in mol/L; no unit attached.

In the examples that follow, each entry is paired with its recorded pKi.
Compound: CCCCCCCCC(O)c1ccc2ccc(CSc3cccc(C(=O)O)c3)nc2c1 (centres undefined)
pKi: 6.22

Compound: CCCCCCCCC(O)c1ccc2ccc(C[S+]([O-])c3cccc(C(=O)[O-])c3)cc2c1.[Li+] (centres undefined)
pKi: 6.30

Compound: CCCCCCCC[C@@H](O)c1ccc2ccc(CCc3cccc(C(=O)[O-])c3)nc2c1.[Li+]
pKi: 7.30

Compound: CCCCCCCCC(O)c1ccc2ccc(C[S+]([O-])c3cccc(C(=O)O)c3)nc2c1 (centres undefined)
pKi: 6.85

Compound: CCCCCCCCC(O)c1ccc2ccc(CCc3cccc(C(=O)[O-])c3)nc2c1.[Li+] (centres undefined)
pKi: 7.00

Let us examine a further case.
Request: Returns the measured pKi for the input compound. Input: CCCCCCCCC(O)c1ccc2ccc(CCCCCC(=O)O)nc2c1 (centres undefined)
Result: 5.55

###

- Subject Of Test: Leukotriene B4 receptor 1 (Homo sapiens, UniProt Q15722)
- Protocol Text: Inhibition of [3H]- LTB4 binding on human whole cells
Entries and their measured Ki follow.
Please give a number only; it is taken to be in nM.

In the examples that follow, each entry is paired with its recorded Ki.
Compound: CCCCCCCCC(O)CCc1cccc(CC(O)c2cccc(C(=O)[O-])c2)n1.[Li+] (stereo not drawn)
Unit Abbreviation: nM
Ki: 60
//
Compound: CCCCCCCCC(O)c1ccc2ccc(/C=C/CCCC(=O)O)nc2c1 (stereo not drawn)
Unit Abbreviation: nM
Ki: 1400
//
Compound: CCCCOc1cccc(C(O)CCc2cccc(CC(O)c3cccc(C(=O)[O-])c3)n2)c1.[Li+] (stereo not drawn)
Unit Abbreviation: nM
Ki: 1000

Request: Returns the measured Ki for the input compound. Input: CCCCCCCCC(O)c1ccc2ccc(CC(O)CCCC(=O)O)nc2c1 (stereo not drawn)
Result: 900

Request: Returns the measured Ki for the input compound. Input: CCCCOc1cccc(C(O)/C=C/c2cccc(CC(O)c3cccc(C(=O)[O-])c3)n2)c1.[Li+] (stereo not drawn)
Result: 3

###

- Subject Of Test: Leukotriene B4 receptor 1 (Homo sapiens, UniProt Q15722)
- Protocol Text: Inhibition of [3H]- LTB4 binding on human whole cells
Entries and their measured pKi follow.
Scale for pKi: -log10 of concentration given in mol/L; no unit attached.

In the examples that follow, each entry is paired with its recorded pKi.
Compound: CCCCC/C=C\C[C@H](O)/C=C/c1cccc(C[C@H](O)CCCCO)n1
Subject Of Test: Leukotriene B4 receptor 1 (Homo sapiens, UniProt Q15722)
Observed Property: pKi
Reading: 6.15

Compound: CCCCCCCCC(O)c1ccc2ccc(CC(O)c3cccc(C(=O)[O-])c3)nc2c1.[Li+] (stereo not drawn)
Subject Of Test: Leukotriene B4 receptor 1 (Homo sapiens, UniProt Q15722)
Observed Property: pKi
Reading: 8.00

Request: Returns the measured pKi for the input compound. Input: CCCCCCCCC(O)c1ccc2ccc(CSc3cccc(C(=O)[O-])c3)cc2c1.[Li+] (stereo not drawn)
Result: 5.05
